Experiment: In vitro microsomal stability of analogs
Type: in vitro ADME, human
Settings: human, liver microsomes, Microsomal stability (HLM) % remaining, footnote d: assessed at 1-hour incubation time
# note: exactly 40% is not below, so it is not fulfilled; use fulfilled for remaining at 1 h strictly under it

Below 40% on remaining at 1 h? Entry `C#Cc1ccc2c(c1)C(c1ccccc1F)=N[C@@H](C)c1c(C(=O)OC(C)C)ncn1-2`
not fulfilled

Strictly below 40% in remaining at 1 h? `COC(=O)c1ncn2c1[C@H](C)N=C(c1ccccc1F)c1cc(Br)ccc1-2`
fulfilled

Threshold test, remaining at 1 h < 40%: `C#Cc1ccc2c(c1)C(c1ccccc1F)=N[C@@H](C)c1c(C(=O)OC)ncn1-2`
not fulfilled

Criterion: remaining at 1 h strictly below 40%. Is it met by `C#Cc1ccc2c(c1)C(c1ccccc1F)=N[C@@H](C)c1c(C(=O)OC(C)(C)C)ncn1-2` ?
not fulfilled

* * *

Assay: In vitro microsomal stability of analogs
Assay type: in vitro ADME, mouse
Conditions: mouse, liver microsomes
Measured Metric: half-life (h)
All answers are understood in h, so give the number only.

response.value for `C#Cc1ccc2c(c1)C(c1ccccc1F)=N[C@@H](C)c1c(C(=O)OC(C)(C)C)ncn1-2` (field: half-life) = 3.27

Just so you know, measured half-life for `C#Cc1ccc2c(c1)C(c1ccccc1F)=N[C@@H](C)c1c(-c3nc(C(C)C)no3)ncn1-2` came out at 8.33

Looking up `COC(=O)c1ncn2c1[C@H](C)N=C(c1ccccc1F)c1cc(Br)ccc1-2` , I see its half-life listed as 1.93

Measured half-life of `C#Cc1ccc2c(c1)C(c1ccccc1F)=N[C@@H](C)c1c(C(=O)OC)ncn1-2` : 3.6

Record `C#Cc1ccc2c(c1)C(c1ccccc1F)=N[C@@H](C)c1c(C(=O)OCCC)ncn1-2` , field half-life: 0.4

half-life reported for this compound `C#Cc1ccc2c(c1)C(c1ccccc1F)=N[C@@H](C)c1c(C(=O)OC(C)C)ncn1-2` : 3.78

So for `C#Cc1ccc2c(c1)C(c1ccccc1F)=N[C@@H](C)c1c(C(=O)NCC)ncn1-2` , the logged half-life turned out to be 32.7

Data point: `CCOC(=O)c1ncn2c1[C@H](C)N=C(c1ccccc1F)c1cc(C3CC3)ccc1-2` ; half-life = 0.767

* * *

Exercise: state measured half-life for each of the molecules provided.
Test: In vitro microsomal stability of analogs
Assay type: in vitro ADME, human
Settings: human, liver microsomes
I only need the number, in min, no unit after it.

Lab note: measured half-life of `C#Cc1ccc2c(c1)C(c1ccccc1F)=N[C@@H](C)c1c(C(=O)O)ncn1-2` was 358

`C#Cc1ccc2c(c1)C(c1ccccc1F)=N[C@@H](C)c1c(C(=O)N(C)C)ncn1-2` yielded half-life of 59

// recorded half-life for `C#Cc1ccc2c(c1)C(c1ccccc1F)=N[C@@H](C)c1c(C(=O)NCC)ncn1-2` : 1980

Summary for this molecule, `C#Cc1ccc2c(c1)C(c1ccccc1F)=N[C@@H](C)c1c(-c3nc(CC)no3)ncn1-2` : half-life is 563

Entry under test: `COC(=O)c1ncn2c1[C@H](C)N=C(c1ccccc1F)c1cc(Br)ccc1-2` . Its half-life was 10

Per the record, `C#Cc1ccc2c(c1)C(c1ccccc1F)=N[C@@H](C)c1c(C#N)ncn1-2` has half-life of 41

Reported half-life for `C#Cc1ccc2c(c1)C(c1ccccc1F)=N[C@@H](C)c1c(C(=O)OC(C)C)ncn1-2` was 57

The value of half-life measured for the molecule `C#Cc1ccc2c(c1)C(c1ccccc1F)=N[C@@H](C)c1c(C(=O)OC)ncn1-2` turned out to be 119

Lab note: `C#Cc1ccc2c(c1)C(c1ccccc1F)=N[C@@H](C)c1c(-c3nc(C(C)C)no3)ncn1-2` gave half-life of 2580

The molecule identified as `C#Cc1ccc2c(c1)C(c1ccccc1F)=N[C@@H](C)c1c(C(=O)OC(C)(C)C)ncn1-2` registered its half-life at 514

* * *

Assay: In vitro microsomal stability of analogs
Type: in vitro ADME, mouse
Details: mouse, liver microsomes
Measured Metric: half-life
Provide a numeric answer, followed by its unit.

Entry `C#Cc1ccc2c(c1)C(c1ccccc1F)=N[C@@H](C)c1c(C(=O)O)ncn1-2` , half-life reported as 2.32 h

Lab book: half-life of `C#Cc1ccc2c(c1)C(c1ccccc1F)=N[C@@H](C)c1c(-c3nc(CC)no3)ncn1-2` noted as 3.55 h

`C#Cc1ccc2c(c1)C(c1ccccc1F)=N[C@@H](C)c1c(C(=O)N(C)C)ncn1-2` has a reported half-life of 0.4 h

Looking up `C#Cc1ccc2c(c1)C(c1ccccc1F)=N[C@@H](C)c1c(C#N)ncn1-2` , I see its half-life listed as 0.967 h

* * *

System: HEK293 (kidney) cell line
Test: In vitro cytotoxicity, cell viability
Assay type: cell-based
Details: 48 h incubation, Cell-Titer Glo cell viability
Measured Metric: HEK293 LD50 (µM)
Answer with a number only, understood to be in µM.

HEK293 LD50 measured on C#Cc1ccc2c(c1)C(c1ccccc1F)=N[C@@H](C)c1c(C(=O)OC3CC3)ncn1-2 [5g] = 35.8

HEK293 LD50 reported for this molecule C#Cc1ccc2c(c1)C(c1ccccc1F)=N[C@@H](C)c1c(C(=O)SCC)ncn1-2 [compound 7] : 20.5

* * *

Test system: HEPG2 (liver) cell line
Assay: In vitro cytotoxicity, cell viability
Type: cell-based
Settings: 48 h incubation, Cell-Titer Glo cell viability
// map HEPG2 LD50 onto a label; ranges class 1 (below 40 µM), class 2 (40 µM to below 70 µM), class 3 (70 µM or more)

Form field 'band' for CCOC(=O)c1ncn2c1[C@H](C)N=C(c1ccccc1F)c1cc(C3CC3)ccc1-2 [compound 3]
class 3

Hi there! Could you help me figure out the category for C#Cc1ccc2c(c1)C(c1ccccc1F)=N[C@@H](C)c1c(C(=O)OCCC)ncn1-2 [5b] please?
class 2

Bin this entry: C#Cc1ccc2c(c1)C(c1ccccc1F)=N[C@@H](C)c1c(C(=O)OCC)ncn1-2 [compound 2]
class 3

# bin label for C#Cc1ccc2c(c1)C(c1ccccc1F)=N[C@@H](C)c1c(C(=O)NCC)ncn1-2 [8b]
class 2

Pick a category. Item: C#Cc1ccc2c(c1)C(c1ccccc1F)=N[C@@H](C)c1c(-c3nc(CC)no3)ncn1-2 [9b]
class 1

Lab log: C#Cc1ccc2c(c1)C(c1ccccc1F)=N[C@@H](C)c1c(C(=O)NC(C)C)ncn1-2 [8d] — assign HEPG2 LD50 category
class 2

# classify by HEPG2 LD50 band: C#Cc1ccc2c(c1)C(c1ccccc1F)=N[C@@H](C)c1c(C(=O)SCC)ncn1-2 [compound 7]
class 1

Using the reported HEPG2 LD50, which band applies to C#Cc1ccc2c(c1)C(c1ccccc1F)=N[C@@H](C)c1c(C#N)ncn1-2 [compound 10] ?
class 2

Which HEPG2 LD50 band matches C#Cc1ccc2c(c1)C(c1ccccc1F)=N[C@@H](C)c1c(-c3nc(C(C)C)no3)ncn1-2 [9c] ?
class 1

Band of C#Cc1ccc2c(c1)C(c1ccccc1F)=N[C@@H](C)c1c(C(=O)N(C)C)ncn1-2 [8f] ?
class 3

Determine which band this compound sits in: C#Cc1ccc2c(c1)C(c1ccccc1F)=N[C@@H](C)c1c(C(=O)NC(C)(C)C)ncn1-2 [8e]
class 2

The entry to classify is C#Cc1ccc2c(c1)C(c1ccccc1F)=N[C@@H](C)c1c(C(=O)OC(C)(C)C)ncn1-2 [5d] ; which class holds it?
class 1

Please classify: C#Cc1ccc2c(c1)C(c1ccccc1F)=N[C@@H](C)c1c(C(=O)OCC(F)(F)F)ncn1-2 [5f]
class 3

Just checking, what class would you give C#Cc1ccc2c(c1)C(c1ccccc1F)=N[C@@H](C)c1c(C(=O)O)ncn1-2 [compound 6] here?
class 3

Class (by measured HEPG2 LD50) for C#Cc1ccc2c(c1)C(c1ccccc1F)=N[C@@H](C)c1c(C(=O)OC(C)(C)CC)ncn1-2 [5e]
class 1

Using the reported HEPG2 LD50, which band applies to C#Cc1ccc2c(c1)C(c1ccccc1F)=N[C@@H](C)c1c(C(=O)NC3CC3)ncn1-2 [8c] ?
class 3

For C#Cc1ccc2c(c1)C(c1ccccc1F)=N[C@@H](C)c1c(C(=O)OC3CC3)ncn1-2 [5g] , which HEPG2 LD50 bin applies?
class 3

* * *

Assay: In vitro microsomal stability of analogs
Type: in vitro ADME, mouse
Settings: after 2 hr
Provide the reported Microsomal stability (MLM) % remaining of each item.
Only the number, expressed in %, is required.

Per the record, `C#Cc1ccc2c(c1)C(c1ccccc1F)=N[C@@H](C)c1c(C#N)ncn1-2` has Microsomal stability (MLM) % remaining of 17.0

The measured Microsomal stability (MLM) % remaining associated with `C#Cc1ccc2c(c1)C(c1ccccc1F)=N[C@@H](C)c1c(C(=O)NC(C)(C)C)ncn1-2` reads 52.0

Record `C#Cc1ccc2c(c1)C(c1ccccc1F)=N[C@@H](C)c1c(C(=O)NC(C)C)ncn1-2` . Reported Microsomal stability (MLM) % remaining: 75.0

Given item `C#Cc1ccc2c(c1)C(c1ccccc1F)=N[C@@H](C)c1c(C(=O)SCC)ncn1-2` , the value recorded as its Microsomal stability (MLM) % remaining is 9.0
